Assay: Polymorph screen summary of forms (stability designation)
Format: physicochemical
Description: Polymorphism is the ability of a chemical entity to exist in different three-dimensional arrangements in the solid state. Different polymorphic forms of a compound can have different physical properties. […] The screen was designed to prepare as many novel crystalline forms as possible and characterize these polymorphs for use in a pharmaceutical product. […]
measured.metric: Description (stability / hydrate designation of the form)

Some solved entries appear below for comparison.
molecule: COc1cc(C(=O)c2c[nH]c(-c3c[nH]c4ccccc34)n2)cc(OC)c1OC.Cl [Form FH]
observed.value: Hydrate
--
molecule: COc1cc(C(=O)c2c[nH]c(-c3c[nH]c4ccccc34)n2)cc(OC)c1OC.Cl [Form I]
observed.value: Metastable
--
molecule: COc1cc(C(=O)c2c[nH]c(-c3c[nH]c4ccccc34)n2)cc(OC)c1OC.Cl [Form D]
observed.value: Metastable
--
molecule: COc1cc(C(=O)c2c[nH]c(-c3c[nH]c4ccccc34)n2)cc(OC)c1OC.Cl [Form GH]
observed.value: Hydrate
--
molecule: COc1cc(C(=O)c2c[nH]c(-c3c[nH]c4ccccc34)n2)cc(OC)c1OC.Cl [Form A]
observed.value: Metastable

Query: I would be grateful if you could share the reported Description (stability / hydrate designation of the form) for COc1cc(C(=O)c2c[nH]c(-c3c[nH]c4ccccc34)n2)cc(OC)c1OC.Cl [Form B] .
Response: Metastable

Cited source: patent US12240834B2
